test system: 282377-053-R-J1-PDC complex spheroid viability; assay: Anticancer human tumor 282377-053-R-J1-PDC patient-derived colon adenocarcinoma cell line growth inhibition [RAS]; settings: second compound 0.316 µM; first compound 0.1 µM; stronger effect = lower value;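 also: spheroids exposed to agents for seven days before readout; luminescence viability as percent of DMSO vehicle control wells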
# viability, T/C listing for each entry below
Write the number in % without appending the unit.

Recorded results for 10 compounds are shown here.
# compound, viability, T/C / %
rows = [
    ("CC(C)n1nc(-c2ccc3oc(N)nc3c2)c2c(N)ncnc21 + C#Cc1c(F)ccc2cc(O)cc(-c3ncc4c(N5CC6CCC(C5)N6)nc(OCC56CCCN5CC(F)C6)nc4c3F)c12", 45.3),
    ("C=CC(=O)Nc1cc(Nc2nccc(-c3cn(C)c4ccccc34)n2)c(OC)cc1N(C)CCN(C)C + C=CC(=O)N1CCN(c2nc(OCC3CCCN3C)nc3c(F)c(-c4nc(N)cc(C)c4C(F)(F)F)c(Cl)cc23)C(C)C1", 105),
    ("CCN1CCN(Cc2ccc(Nc3ncc(F)c(-c4cc(F)c5nc(C)n(C(C)C)c5c4)n3)nc2)CC1 + C=CC(=O)N1CCN(c2nc(OCC3CCCN3C)nc3c(F)c(-c4nc(N)cc(C)c4C(F)(F)F)c(Cl)cc23)C(C)C1", 99.8),
    ("CC(Nc1ccc2c(c1)OCCn1cc(N3C(=O)OCC3C(F)F)nc1-2)C(N)=O (stereo not drawn) + C#Cc1c(F)ccc2cc(O)cc(-c3ncc4c(N5CC6CCC(C5)N6)nc(OCC56CCCN5CC(F)C6)nc4c3F)c12", 92.7),
    ("CCN1CCN(Cc2ccc(Nc3ncc(F)c(-c4cc(F)c5nc(C)n(C(C)C)c5c4)n3)nc2)CC1 + C#Cc1c(F)ccc2cc(O)cc(-c3ncc4c(N5CC6CCC(C5)N6)nc(OCC56CCCN5CC(F)C6)nc4c3F)c12", 121),
    ("CC(=O)OC12COC1CC(O)C1(C)C(=O)C(O)C3=C(C)C(OC(=O)C(O)C(NC(=O)OC(C)(C)C)c4ccccc4)CC(O)(C(OC(=O)c4ccccc4)C21)C3(C)C (stereo not drawn) + C#Cc1c(F)ccc2cc(O)cc(-c3ncc4c(N5CC6CCC(C5)N6)nc(OCC56CCCN5CC(F)C6)nc4c3F)c12", 24.7),
    ("Cc1nc(N2CCC3(CC2)COC(C)C3N)c(CO)nc1Sc1ccnc(N)c1Cl (stereo not drawn) + C=CC(=O)N1CCN(c2nc(OCC3CCCN3C)nc3c(F)c(-c4nc(N)cc(C)c4C(F)(F)F)c(Cl)cc23)C(C)C1", 96.6),
    ("CCC(CC)c1cc(NC2CCC(N)C2)n2nccc2n1 (stereo not drawn) + C#Cc1c(F)ccc2cc(O)cc(-c3ncc4c(N5CC6CCC(C5)N6)nc(OCC56CCCN5CC(F)C6)nc4c3F)c12", 102),
    ("CC(C)NCC(C(=O)N1CCN(c2ncnc3c2C(C)CC3O)CC1)c1ccc(Cl)cc1 (stereo not drawn) + C=CC(=O)N1CCN(c2nc(OCC3CCCN3C)nc3c(F)c(-c4nc(N)cc(C)c4C(F)(F)F)c(Cl)cc23)C(C)C1", 96.7),
    ("CC(C)NCC(C(=O)N1CCN(c2ncnc3c2C(C)CC3O)CC1)c1ccc(Cl)cc1 (stereo not drawn) + C#Cc1c(F)ccc2cc(O)cc(-c3ncc4c(N5CC6CCC(C5)N6)nc(OCC56CCCN5CC(F)C6)nc4c3F)c12", 110),
]

// viability, T/C lookup, compound = O=C(c1ccc(F)c(F)c1Nc1ccc(I)cc1F)N1CC(O)([C@@H]2CCCCN2)C1 + C#Cc1c(F)ccc2cc(O)cc(-c3ncc4c(N5CC6CCC(C5)N6)nc(OCC56CCCN5CC(F)C6)nc4c3F)c12 , result: 37.2

Form field viability, T/C, entry CC(C)n1nc(-c2ccc3oc(N)nc3c2)c2c(N)ncnc21 + C=CC(=O)N1CCN(c2nc(OCC3CCCN3C)nc3c(F)c(-c4nc(N)cc(C)c4C(F)(F)F)c(Cl)cc23)C(C)C1 : 48.6

The compound NC1c2ccccc2OC12CCN(c1cnc3c(N4CCCc5ncccc54)n[nH]c3n1)CC2 (stereo not drawn) + C=CC(=O)N1CCN(c2nc(OCC3CCCN3C)nc3c(F)c(-c4nc(N)cc(C)c4C(F)(F)F)c(Cl)cc23)C(C)C1 showed viability, T/C equal to 98.6
